target: human RORγt ligand binding domain (RORγt LBD) (Homo sapiens, UniProt P51449); construct: His-tag (N); TurboTEV protease cleavage site (ENLYFQG) (N); test: RORγt ThermoFluor assay (thermal shift, ligand binding affinity); conditions: estimated from concentration response of thermal shift
pKd: −log10 of the molar value.
Given measured pKd, output fulfilled if it is greater than or equal to 6 and not fulfilled if not.

[[record]]
compound = "COc1nc2ccc(C(O)(c3cccnc3)c3cccc(Cl)c3)cc2c(OC)c1-c1ccccc1 (stereo not shown) [Example 79]"
label = "fulfilled"

[[record]]
compound = "COc1nc2c(C)cc(C(O)(c3ccc(F)cc3)c3cncn3C)cc2c(C#N)c1-c1cccc(F)c1 (single isomer, unassigned) [Example 180b]"
label = "not fulfilled"

[[record]]
compound = "Cn1ccnc1C(O)(c1ccnnc1)c1ccc2nc(Cl)c(-c3ccccc3)c(Cl)c2c1 (stereo not shown) [Example 121]"
label = "not fulfilled"

[[record]]
compound = "Cc1nn(C)c(C)c1C(O)(c1ccccc1)c1ccc2nc(Cl)c(-c3ccccc3Cl)c(Cl)c2c1 (stereo not shown) [Example 7]"
label = "not fulfilled"

[[record]]
compound = "Cn1cncc1C(O)(c1ccc(Cl)cc1)c1ccc2nc(Cl)c(-c3ccccc3Cl)c(Cl)c2c1 (single isomer, unassigned) [Example 153c]"
label = "fulfilled"

[[record]]
compound = "CCOc1nc2ccc(C(O)(c3cccnc3)c3cccc(Cl)c3)cc2c(Cl)c1-c1ccccc1 (stereo not shown) [Example 81]"
label = "fulfilled"


----------
Biological target: human RORγt LBD (Homo sapiens, UniProt P51449)
Sequence (P51449 258-518): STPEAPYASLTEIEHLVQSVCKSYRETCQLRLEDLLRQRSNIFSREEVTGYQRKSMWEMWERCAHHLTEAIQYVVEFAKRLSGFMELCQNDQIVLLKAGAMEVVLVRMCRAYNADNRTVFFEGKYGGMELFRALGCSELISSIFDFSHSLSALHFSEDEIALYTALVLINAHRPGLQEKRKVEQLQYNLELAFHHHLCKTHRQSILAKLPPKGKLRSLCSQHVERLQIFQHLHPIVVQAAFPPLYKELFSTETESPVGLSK
Assay: RORγt reporter assay (GAL4-RORγt LBD luciferase in HEK293T cells)
Conditions: HEK293T cells, 24 hours compound treatment
# reported IC50; entries follow
Measure name: IC50 (nM)

[[record]]
compound = "Cc1cc(C(O)(c2ccc3nc(Cl)c(-c4ccccc4)c(Cl)c3c2)c2nccn2C)cc(Cl)n1 (centres unmarked)"
unit_info = "nM"
observed_value = 2000

[[record]]
compound = "Cn1cncc1C(O)(c1cccnc1)c1cc(F)c2nc(Cl)c(-c3ccccc3)c(Cl)c2c1 (centres unmarked)"
unit_info = "nM"
observed_value = 970

[[record]]
compound = "OC(c1ccc(Cl)cc1)(c1cccnc1)c1ccc2nc(-c3cccnc3)c(-c3ccccc3)c(Cl)c2c1 (centres unmarked)"
unit_info = "nM"
observed_value = 2200

[[record]]
compound = "COc1c(-c2ccccc2)c(N(C)C)nc2ccc(C(O)(c3ccncc3)c3cncn3C)cc12 (centres unmarked)"
unit_info = "nM"
observed_value = 59

[[record]]
compound = "CCc1nc2ccc(C(O)(c3ccncc3)c3cncn3C)cc2c(CC)c1-c1ccccc1 (centres unmarked)"
unit_info = "nM"
observed_value = 580

[[record]]
compound = "Cn1cncc1C(O)(c1ccc(Cl)cc1)c1cc2c(Cl)c(-c3ccccc3)c(Cl)nc2cc1F (centres unmarked)"
unit_info = "nM"
observed_value = 170

[[record]]
compound = "Cn1cncc1C(O)(c1ccnc(Cl)c1)c1ccc2nc(Cl)c(-c3ccccc3)c(Cl)c2c1 (centres unmarked)"
unit_info = "nM"
observed_value = 10

